biological target: Bile acid receptor (Homo sapiens); experiment: Agonist activity at FXR (unknown origin) expressed in human HepG2 cells co-transfected with human RXR assessed as luciferase activity incubated for 24 hrs by cell-based luciferase assay
Sequence (Q96RI1 whole entry): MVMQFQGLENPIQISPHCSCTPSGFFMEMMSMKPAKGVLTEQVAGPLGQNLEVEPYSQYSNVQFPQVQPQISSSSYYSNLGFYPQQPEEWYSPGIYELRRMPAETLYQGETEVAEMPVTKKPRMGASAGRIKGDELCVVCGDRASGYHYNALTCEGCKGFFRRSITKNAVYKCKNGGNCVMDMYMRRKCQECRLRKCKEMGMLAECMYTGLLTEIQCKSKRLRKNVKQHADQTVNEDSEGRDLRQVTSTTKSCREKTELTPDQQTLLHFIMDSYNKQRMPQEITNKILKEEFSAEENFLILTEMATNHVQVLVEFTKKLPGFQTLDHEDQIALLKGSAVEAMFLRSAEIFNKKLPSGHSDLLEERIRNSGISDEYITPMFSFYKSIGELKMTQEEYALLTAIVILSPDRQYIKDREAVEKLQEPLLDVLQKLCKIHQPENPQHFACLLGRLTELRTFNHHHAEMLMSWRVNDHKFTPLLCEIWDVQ
pEC50: −log10 of the molar value.
Parameter pEC50: see the listing below.
observable: pEC50

molecule=O=C(O)COc1cccc(-c2ccc(OCc3c(-c4c(Cl)cccc4Cl)noc3C3CC3)cc2)c1 observable=pEC50 reportedrelation== recordednumber=5.73
molecule=CCc1c(-c2ccccc2)c(-c2ccccc2)nn1-c1ccccc1-c1cccc(OCC(=O)O)c1 observable=pEC50 reportedrelation=< recordednumber=5.00
molecule=O=C(O)C1(c2cccc(-c3ccc(OCc4c(-c5c(Cl)cccc5Cl)noc4C4CC4)cc3)c2)CC1 observable=pEC50 reportedrelation== recordednumber=6.31
molecule="CC(Oc1ccc(-c2ccc(OCc3c(-c4c(Cl)cccc4Cl)noc3C3CC3)cc2)cc1)C(=O)O (centres undefined)" observable=pEC50 reportedrelation== recordednumber=5.45

====

Target: Retinoic acid receptor alpha (Homo sapiens)
Sequence (P10276 whole entry): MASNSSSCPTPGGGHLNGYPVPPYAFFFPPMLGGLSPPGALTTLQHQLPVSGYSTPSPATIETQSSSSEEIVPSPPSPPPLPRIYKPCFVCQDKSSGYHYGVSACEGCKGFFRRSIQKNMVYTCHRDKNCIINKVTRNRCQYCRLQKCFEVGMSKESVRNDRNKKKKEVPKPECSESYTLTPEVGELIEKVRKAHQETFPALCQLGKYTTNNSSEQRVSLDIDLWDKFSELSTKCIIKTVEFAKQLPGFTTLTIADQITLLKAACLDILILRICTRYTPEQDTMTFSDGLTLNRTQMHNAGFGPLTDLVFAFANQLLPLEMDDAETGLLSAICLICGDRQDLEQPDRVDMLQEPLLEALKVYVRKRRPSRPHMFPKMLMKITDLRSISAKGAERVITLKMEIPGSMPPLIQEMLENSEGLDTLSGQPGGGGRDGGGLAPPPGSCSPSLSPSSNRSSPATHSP
Test: Activation of Gal-DBD and NHRLBD fused RARalpha (unknown origin) transfected in African green monkey CV-1 cells by luciferase reporter assay
observable: EC50

cpdsmiles=O=C(O)C1(c2cccc(-c3ccc(OCc4c(-c5c(Cl)cccc5Cl)noc4C4CC4)cc3)c2)CC1 observable=EC50 result="> 10 µM"
cpdsmiles=O=C(O)Cc1ccc(-c2ccc(OCc3c(-c4c(Cl)cccc4Cl)noc3C3CC3)cc2)cc1 observable=EC50 result="> 10 µM"

====

Target: Fatty acid-binding protein, liver (Homo sapiens) (UniProt P07148)
Sequence (whole entry): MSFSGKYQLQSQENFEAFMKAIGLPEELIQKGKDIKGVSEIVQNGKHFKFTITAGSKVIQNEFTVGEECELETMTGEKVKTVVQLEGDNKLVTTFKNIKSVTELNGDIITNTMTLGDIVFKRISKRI
Assay: Displacement of 8-anilino-1-naphthalene-sulfonic acid from FABP1 (unknown origin) at 10 uM incubated for 3 mins by fluorescence based assay relative to control
So basically: inhibition at 70% or higher? That is satisfied. Lower than 70%? That is not satisfied.

cpdsmiles=CC(C)(C(=O)O)c1cccc(-c2ccc(OCc3c(-c4c(Cl)cccc4Cl)noc3C3CC3)cc2)c1 classification=satisfied
cpdsmiles=CC(C)c1onc(-c2c(Cl)cccc2Cl)c1COc1ccc(/C=C/c2cccc(C(=O)O)c2)c(Cl)c1 classification="not satisfied"
cpdsmiles=CCc1c(-c2ccccc2)c(-c2ccccc2)nn1-c1ccccc1-c1cccc(OCC(=O)O)c1 classification=satisfied
cpdsmiles=O=C(O)C1(c2cccc(-c3ccc(OCc4c(-c5c(Cl)cccc5Cl)noc4C4CC4)cc3)c2)CC1 classification=satisfied
cpdsmiles=O=C(O)COc1cccc(-c2ccc(OCc3c(-c4c(Cl)cccc4Cl)noc3C3CC3)cc2)c1 classification="not satisfied"
cpdsmiles=O=C(O)Cc1ccc(-c2cccc(OCc3c(-c4c(Cl)cccc4Cl)noc3C3CC3)c2)cc1 classification="not satisfied"
